So I've got a bunch of binders here, and I need their fold-change of OD 450 over negative control (BSA) values.
Molecular target: T1, Activin B (Homo sapiens (Human), UniProt P09529 293-407)
T1 construct: also called Mature Activin B; mature Activin B
T1 sequence: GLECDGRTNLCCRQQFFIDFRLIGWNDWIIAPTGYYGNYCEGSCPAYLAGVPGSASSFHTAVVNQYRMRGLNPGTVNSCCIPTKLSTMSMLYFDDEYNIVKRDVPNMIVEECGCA
Test: ELISA, coated antigen, OD450
Be sure to follow the number with its unit.

Query: Which fold-change of OD 450 over negative control (BSA) is reported for this binder? AB435 (antibody, IgG1, V domains shown) VH: QVQLQESGPGLVKPSQTLSLTCTVSGYSLTDARIGVNWIRQPPGKGLEWIGYINPSGRTDYNPSLKSRVTMSVDTSKNQFSLKVNSVTAADTAVYYCARAGYPDVWGKGTTVTVSS VL: EIVMTQSPATLSLSPGERATLSCRASQSIGTKLAWYQQKPGQAPRLLIYDASSRVPGIPARFSGSGSGTDFTLTISSLEPEDFAVYYCQQYGSSPPVYSFGGGTKVEIK
Reply: 0.84 fold

Query: Moving on to the next binder: AB430 (antibody, IgG1, V domains shown) VH: EVQLVESGGGLVQPGGSLRLSCAASGFTLSNYPMSWVRQAPGKGLELVASTTSGSSTIYYPDSVKGRFTISRDNAKNSLYLQMNSLRAEDTAVYYCARGPDYYAPLRSYMDVWGKGTTVTVSS VL: DIVMTQSPLSLPVTPGEPASISCRSSQSLQQSEGRTYLHWYLQKPGQSPQLLIYDASKRASGVPDRFSGSGSGTDFTLKISRVEAEDVGVYYCMQVLRTPITFGGGTKVEIK
Reply: 0.51 fold

Query: Moving on to the next binder: AB352 (antibody, IgG1, V domains shown) VH: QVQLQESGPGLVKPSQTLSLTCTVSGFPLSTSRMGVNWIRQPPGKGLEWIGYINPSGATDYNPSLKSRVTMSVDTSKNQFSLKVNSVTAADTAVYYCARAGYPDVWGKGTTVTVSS VL: EIVMTQSPATLSLSPGERATLSCRASQSVSTHLAWYQQKPGQAPRLLIYDATNRATGIPARFSGSGSGTDFTLTISSLEPEDFAVYYCLQYTNYPWTFGGGTKVEIK
Reply: 2.03 fold

Query: Moving on to the next binder: AB363 (antibody, IgG1, V domains shown) VH: QVTLRESGPALVKPTQTLTLTCTVSGFSLSTSGATVNWIRQPPGKALEWIGYITSSGRTVYNSALKSRLTISKDTSKNQVVLTMTNMDPVDTATYYCTTTKIVGATLRDYWGQGTLVTVSS VL: DIQMTQSPSSVSASVGDRVTITCRASQGISNDLAWYQQKPGKAPKLLIYDVSNRASGVPSRFSGSGSGTDFTLTISSLQPEDFANYYCQQYDNPPSFGGGTKVEIK
Reply: 0.63 fold

Query: Moving on to the next binder: AB448 (antibody, IgG1, V domains shown) VH: QVQLQESGPGLVKPSQTLSLTCTVSGLSLSNAKMGVNWIRQPPGKGLEWIGYVSTTGTTDYNPSLKSRVTMSVDTSKNQFSLKVNSVTAADTAVYYCARAGYPDVWGKGTTVTVSS VL: DIQMTQSPSSVSASVGDRVTITCRASQNIGAALAWYQQKPGKAPKLLIYGASTREYGVPSRFSGSGSGTDFTLTISSLQPEDFANYYCQQYTAYPLTFGGGTKVEIK
Reply: 0.69 fold
